Data provenance is patent US10206394B2.

system: Echinochloa crus-galli (ECHCG); test: Glasshouse assay for herbicidal activity (pre- and post-emergence), percentage phytotoxicity; format: in vivo; conditions: Echinochloa crus-galli, post-emergence, 360 h, post-emergence, 250 g/ha, 15 DAA, visual score (100%=total damage; 0%=no damage); read-out: ECHCG POST herbicidal activity (percentage phytotoxicity)
Exercise: for every item that follows, state its recorded pest or weed control at 250 g/ha.
Report the figure in % without appending any unit label.

Field request: pest or weed control at 250 g/ha | item: COc1ccc(C(=O)OC2=C(c3c(C)cc(-c4ncc(Cl)cn4)cc3C)C(=O)C(CC(=O)NC(C)(C)C)C2)cc1 (stereo not drawn) [Compound P1]
100

Field request: pest or weed control at 250 g/ha | item: Cc1cc(C)c(C2C(=O)CC(CC(=O)N3CC(C)CC(C)C3)C2=O)c(C)c1 (stereo not drawn) [Compound A173]
30

Field request: pest or weed control at 250 g/ha | item: Cc1cc(C)c(C2C(=O)CC(CC(N)=O)C2=O)c(C)c1 (stereo not drawn) [Compound A187]
100

Field request: pest or weed control at 250 g/ha | item: Cc1cc(C)c(C2C(=O)CC(CC(=O)NC3CC(F)(F)C3)C2=O)c(C)c1 (stereo not drawn) [Compound A185]
70

Field request: pest or weed control at 250 g/ha | item: C#CC(C)N(C)C(=O)CC1CC(=O)C(c2c(C)cc(C)cc2C)C1=O (single isomer, unassigned) [Compound A183]
80

Field request: pest or weed control at 250 g/ha | item: Cc1cc(-c2ncc(Cl)cc2Cl)cc(C)c1C1C(=O)CC(CC(=O)NC(C)(C)C)C1=O (stereo not drawn) [Compound A168]
100

Field request: pest or weed control at 250 g/ha | item: CCOC(=O)OC1=C(c2c(C)cc(-c3ncc(Cl)cn3)cc2C)C(=O)C(CC(=O)NC(C)(C)C)C1 (stereo not drawn) [Compound P4]
100

Field request: pest or weed control at 250 g/ha | item: Cc1cc(-c2ncc(Cl)cn2)cc(C)c1C1=C(OC(=O)c2ccc(F)cc2)CC(CC(=O)NC(C)(C)C)C1=O (stereo not drawn) [Compound P2]
100

Field request: pest or weed control at 250 g/ha | item: COCCCNC(=O)CC1CC(=O)C(c2c(C)cc(C)cc2C)C1=O (stereo not drawn) [Compound A176]
100

Field request: pest or weed control at 250 g/ha | item: CCCN(CC)C(=O)CC1CC(=O)C(c2c(C)cc(C)cc2C)C1=O (stereo not drawn) [Compound A171]
70

Field request: pest or weed control at 250 g/ha | item: Cc1cc(C)c(C2C(=O)CC(CC(=O)NCC3CCC3)C2=O)c(C)c1 (stereo not drawn) [Compound A184]
90

Field request: pest or weed control at 250 g/ha | item: Cc1cc(-c2nccs2)cc(C)c1C1C(=O)CC(CC(=O)NC(C)(C)C)C1=O (stereo not drawn) [Compound A186]
80

Field request: pest or weed control at 250 g/ha | item: Cc1cc(C)c(C2C(=O)CC(CC(=O)NCC3CSC3)C2=O)c(C)c1 (stereo not drawn) [Compound A174]
10

Field request: pest or weed control at 250 g/ha | item: Cc1cc(C)c(C2C(=O)CC(CC(=O)NC3COC3)C2=O)c(C)c1 (stereo not drawn) [Compound A182]
80

Field request: pest or weed control at 250 g/ha | item: CCCCCCCNC(=O)CC1CC(=O)C(c2c(C)cc(C)cc2C)C1=O (stereo not drawn) [Compound A178]
40
